Target: Very long chain fatty acid elongase 1 (Homo sapiens, UniProt Q9BW60)
Sequence (Q9BW60 whole entry): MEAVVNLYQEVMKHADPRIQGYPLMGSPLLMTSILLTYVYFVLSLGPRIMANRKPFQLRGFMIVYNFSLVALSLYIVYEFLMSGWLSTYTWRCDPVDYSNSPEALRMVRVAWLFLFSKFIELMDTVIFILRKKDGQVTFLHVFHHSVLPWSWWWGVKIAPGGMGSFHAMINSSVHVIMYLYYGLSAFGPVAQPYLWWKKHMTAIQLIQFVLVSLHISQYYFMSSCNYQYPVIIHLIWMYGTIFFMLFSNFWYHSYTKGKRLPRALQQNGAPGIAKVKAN
Experiment: Inhibition of ELOVL1 in HEK293 cells assessed as reduction of C26:0 lipo phosphatidyl choline synthesis
Format: cell-based
pIC50: −log10 of the molar value.
observable: pIC50

>>> measvalue("c1ccc([C@H]2CN(c3cc(O[C@H]4C[C@@H](c5ccccc5)C4)ncn3)CCO2)cc1")
7.82
>>> measvalue("c1cnn([C@H]2C[C@@H](Oc3cc([C@H]4C[C@H](n5cccn5)C4)ncn3)C2)c1")
8.00
>>> measvalue("Cc1ccnn1CCCOc1cc(N2CCOC(c3ccccc3)C2)ncn1 (stereo not drawn)")
8.15
